All values here come from patent US20040146519A1.

# experimental_target: HLA-A*0202 (human)
# assay_remarks: inhibition of 125I probe peptide, purified HLA
pIC50: −log10 of the molar value.

# binder, pIC50
records = [
    ("QLIGYVIGV [CEA.78.L2V9]", 8.23),
]
